# ASSAY TARGET: cloned human GLP-1 receptor (Homo sapiens, UniProt P43220)
# Construct: expressed in transfected cells; host or cells: CHO or HEK-293 cells
# Sequence (P43220 24-463): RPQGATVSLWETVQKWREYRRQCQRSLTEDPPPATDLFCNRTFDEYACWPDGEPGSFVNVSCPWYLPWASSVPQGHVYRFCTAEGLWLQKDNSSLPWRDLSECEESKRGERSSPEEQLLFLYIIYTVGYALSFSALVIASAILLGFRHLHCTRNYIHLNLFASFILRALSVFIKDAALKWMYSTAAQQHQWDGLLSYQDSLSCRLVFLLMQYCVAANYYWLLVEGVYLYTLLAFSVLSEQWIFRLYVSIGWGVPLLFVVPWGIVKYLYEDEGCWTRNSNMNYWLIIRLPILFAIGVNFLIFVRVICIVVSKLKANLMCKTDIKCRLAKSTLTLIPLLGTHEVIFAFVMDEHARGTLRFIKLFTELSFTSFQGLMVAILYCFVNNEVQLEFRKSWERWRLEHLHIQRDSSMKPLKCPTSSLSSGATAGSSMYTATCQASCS
# METHOD: Functional cell-based assay: cAMP functional assay
MEASURED PROPERTY: EC50 (nM)
API: value field is a number in nM; no unit string.

[[record]]
molecule = "O=C1Nc2cc3c(cc2OC1c1ccc(OCc2ccc(Cl)c(Cl)c2)cc1)CN(C(=O)c1ccccc1)[C@H](C(=O)N[C@@H](Cc1ccc(-c2ccncc2)cc1)C(=O)O)C3 (stereo partly drawn) [Example 83]"
measured_property = "EC50"
reported_result = 710

[[record]]
molecule = "CN1C(=O)C(c2ccc(OCc3ccc(Cl)c(Cl)c3)cc2)Oc2cc3c(cc21)C[C@@H](C(=O)N[C@@H](Cc1ccc(-c2ccc(C#N)cc2)cc1)C(=O)O)N(CC#Cc1ccccc1)C3 (stereo partly drawn) [Example 69]"
measured_property = "EC50"
reported_result = 574


Note: attention shifts to another entry.
Q: What value of EC50 has been reported for the following molecule? CC[C@@H](c1ccccc1)N1Cc2cc3c(cc2C[C@H]1C(=O)N[C@@H](Cc1ccc(-c2ccc(C#N)cc2)cc1)C(=O)O)N(C)C(=O)[C@H](c1ccc(OCc2ccc(Cl)c(Cl)c2)cc1)O3 [Example 87]
Ans: 64.5
